- Organism: Homo sapiens
- method notes: Liver toxicity in human assessed as induction of drug-induced liver injury by measuring verified drug-induced liver injury concern status
reported metric: DILI_Concern

# annotated cases, reported DILI_Concern shown
compound | DILI_Concern
Cc1ccc(-c2nc3ccc(C)cn3c2CC(=O)N(C)C)cc1 [ZOLPIDEM] | Ambiguous-Dili-Concern
C=CC[N+]1([C@H]2C[C@H]3[C@@H]4CC[C@H]5C[C@H](O)C(N6CCOCC6)C[C@]5(C)[C@H]4CC[C@]3(C)[C@H]2OC(C)=O)CCCC1 (some centres not stated) | No-Dili-Concern
CCCCCc1cc(O)c2c(c1)OC(C)(C)[C@@H]1CCC(C)=C[C@@H]21 [DRONABINOL] | Ambiguous-Dili-Concern
Nc1nc2[nH]cc(CCc3ccc(C(=O)N[C@@H](CCC(=O)O)C(=O)O)cc3)c2c(=O)[nH]1 [PEMETREXED] | Ambiguous-Dili-Concern

Now look at this one.
*Q* I have this compound here, c1cc(CN2CCCNCCNCCCNCC2)ccc1CN1CCCNCCNCCCNCC1 [PLERIXAFOR] , and I need its recorded DILI_Concern.
*A* No-Dili-Concern
